B1: Azoarcus group I ribozyme (parent)
chain: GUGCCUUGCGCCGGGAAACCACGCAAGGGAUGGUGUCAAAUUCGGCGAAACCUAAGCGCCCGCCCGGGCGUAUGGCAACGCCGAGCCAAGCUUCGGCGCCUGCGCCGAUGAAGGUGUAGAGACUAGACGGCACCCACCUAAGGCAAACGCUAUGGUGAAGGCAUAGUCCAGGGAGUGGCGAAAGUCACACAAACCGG

Variants of: B1
assay_protocol: reverse-splicing fitness (ratio to wild type); higher = more active; in vitro selection; Mg2+ level not given
Label scheme for reverse-splicing fitness: low (below 0.008), mid (0.008 to below 0.02), high (0.02 or more)

Study these solved cases before continuing.
A111U A145G C150A C169U; high
A111G A145G C169U U176G; low
C82U A111U A120C A145G; high
A120C U176C; high
C82A A111C A145C C150U C169G U176G; mid
C82A A120C A145C C150G C169U U176C; mid
C82U A111U A120U A145C C150A C169G; low
C82U A111G A120G A145C U176G; low
A111G A120U C169G U176A; mid
C82G A111G A120C A145U C150A C169A U176A; mid

Attention now shifts to the item below.
input: Assign a category based on measured reverse-splicing fitness for A111U A120G A145U C150U C169G and give only the class name.
output: high
